Target: T1, L-selectin (CD62L) on primary CD4+ T cells (Homo sapiens, UniProt P14151 P14151:39-372)
T1 sequence: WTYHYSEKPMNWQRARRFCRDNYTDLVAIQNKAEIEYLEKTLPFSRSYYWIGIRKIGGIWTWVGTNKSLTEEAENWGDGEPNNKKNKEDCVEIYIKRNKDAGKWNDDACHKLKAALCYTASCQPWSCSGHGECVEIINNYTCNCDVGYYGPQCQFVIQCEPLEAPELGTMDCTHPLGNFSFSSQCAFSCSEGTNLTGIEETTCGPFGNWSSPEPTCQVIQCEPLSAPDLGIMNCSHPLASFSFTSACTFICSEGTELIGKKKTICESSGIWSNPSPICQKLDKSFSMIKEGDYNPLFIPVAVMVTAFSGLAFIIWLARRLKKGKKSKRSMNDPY
Assay: flow; apparent KD +/-0.033; cryopreserved CD4+ T cells used right after thaw; DPBS Ca/Mg + 5 mM MgCl2, 4 C
Conditions: tags: endogenous, label: 5' 6-FAM, Cy5 or biotin (hexaethylene glycol spacer)
pKd: −log10 of the molar value.
PROPERTY_LABEL: pKd

BINDER: CD62LApt.88 (A1, L-SA.88) (ssDNA) DNA: ATCCAGAGTGACGCAGCATAGTCAAGGCGATAGACGAAAAACATTGTTTTCCTGGAAGGCCCAGAATCTGTGGACACGGTGGCTTAGT
RECORDED_NUMBER: 10.40
